# system_name: T1, hMPV PostF trimer (human metapneumovirus, strain B2)
# T1 construct: also called MPV PostF (dPFv1)
# method_summary: BLI, mAb on anti-human Fc sensor
experimental_readout: Octet binding response (nm)

1) M1A11 (antibody, V domains shown, IgG; also called MIA11) VH: QLQLQESGPGLVKPSETLSLTCTVSGDSISSSSFYWGWIRQPPGKGLEWIATIYYTGSTEYNPSLKSRISISVDTSMNQFSLRLRSVTAADTAVYYCARQEGSSWSNWFDPWGQGTLVTVSS VL: DIQMTQSPSSLSASVGDRVTITCRASQSISTYLNWYQQKPGKAPKLLIYVASSLQSGVPSRFSGSGSGTDFTLTISSLQPEDFATYYCQQGYSIPWTFGHGTKVEIK    0.0143
2) M2A11 (antibody, V domains shown, IgG) VH: QVQLQESGPGLVKPSETLSLTCTVSGGSITSHYWSWVRQPPGKGLEWIAYIYYSGSTDYNPSLKSRVTISLDTSKNQVSLRLNSVTTADTAVYFCARCMPLYHVMHVWGHGTTVTVSS VL: QSVLTQPPSVSGAPGQRVTISCTGSSSDIGAGSDVHWYQQLPGTAPKLLIYGNTNRPSGVPDRFSGSKSGTSASLAITGLQAEDEADYYCQSYDSGLSGYVFGGGTKLTVL    0.293
3) M2C07 (antibody, V domains shown, IgG) VH: QVQLQESGPGLVAPSQTLSLICDVSGDSVTSGAYSWSWIRQHPVKGLEWIAYINYSGRTNYNPSLQSRLVISVDRSKNQFSLRLSSVTAADTAVYYCARANVVGYSGFYFDYWGQGTLVAVSS VL: DIQMTQSPSSLSASVGDTVTITCRASQSVGAYLNWYQQKPGKAPKLLVFAGSSLQTGVPSRFSGRGSRTEFTLTITNLQREDFASYYCQQSLGDFLTFGGGTKVEIK    0.454
4) M3C01 (antibody, V domains shown, IgG) VH: QLQLQESGPGLVKPSETLSLTCTVSGGSISSSSYFWGWIRQPPGKGLEWIGSVFYSGSTYYNPSLKSRVTISVDTPKNQFSLRLSSVTAADTAVYYCARHSWDRWVYWGQGTLVTVSS VL: DIQMTQSPSSVSASVGDRVTITCRASQDISSWLAWYQQKPGKAPKLLIYAASSLQSGVPSRFSGSGSGTDFTLTISSLQPEDFATYYCQQANSFPLTFGGGTKVEIK    0.327
5) M4C08 (antibody, V domains shown, IgG) VH: EVQLVESGGTLVQPGGSLRLSCAASGFKFNAFSMNWVRQAPGKGLEWVSYIDSRSNIIYYADSVKGRFTISRDNAKNSLYLRMSSLRDEDTAVYYCAKALCVVNYDFWSGLLGCAMDVWGQGTTVTVSS VL: QSVLTQPPSVSGAPGQRVTISCTGNTSNIGAGFDVHWYQQVPGTAPKLLIYANTDRPSGVPDRFSASKSGTSASLAITGLQAEDEADYYCQTYDRSLSGSTVFGGGTKLTVL    0.467

Hey, just so you know, these numbers are from patent US20240327502A1.
